molecular target: isolated recombinant JAK2 kinase domain (Homo sapiens (Human)); assay: JAK2 enzyme assay (Caliper LabChip, Ki); assay type: biochemical; details: isolated recombinant JAK2 kinase domain, 0.2 nM enzyme, ATP 25 μM
Ki overview
Please respond with the number in nM and leave the unit unwritten.

# annotated cases, reported Ki shown
- CN1CCN(C(=O)Cn2cc(Nc3nc4c(N5CC6CCC(C5)N6S(=O)(=O)c5ccc(C#N)cc5)cccn4n3)cn2)CC1: 2
- CN1CCN(C(=O)Cn2cc(Nc3nc4c(N5CC6CCC(C5)N6C(=O)Cc5ccncc5)cccn4n3)cn2)CC1: 5.7
- CN1CCN(C(=O)Cn2cc(Nc3nc4c(N5CC6CCC(C5)N6S(=O)(=O)Cc5ccccc5Cl)cccn4n3)cn2)CC1: 0.7

Form: compound = `CSc1cccc(S(=O)(=O)N2C3CCC2CN(c2cccn4nc(Nc5cnn(CC(=O)N6CCN(C)CC6)c5)nc24)C3)c1` ; Ki = 0.6

Form: compound = `CN1CCN(C(=O)Cn2cc(Nc3nc4c(N5CC6CCC(C5)N6C(=O)N5CC(F)C5)cccn4n3)cn2)CC1` ; Ki = 0.2

Form: compound = `CSC1CN(C(=O)N2C3CCC2CN(c2cccn4nc(Nc5cnn(CC(=O)N6CCN(C)CC6)c5)nc24)C3)C1` ; Ki = 2.9

Form: compound = CC(C(=O)N1CCN(C)CC1)n1cc(Nc2nc3c(N4CC5CCCC(C4)N5C(=O)CCC(F)(F)F)cccn3n2)cn1 (stereo not shown) [Example 106] ; Ki = 0.7

---

target: isolated recombinant JAK1 kinase domain (Homo sapiens (Human), UniProt P23458); assay: JAK1 enzyme assay (Caliper LabChip, Ki); type: biochemical
Sequence (P23458 875-1153): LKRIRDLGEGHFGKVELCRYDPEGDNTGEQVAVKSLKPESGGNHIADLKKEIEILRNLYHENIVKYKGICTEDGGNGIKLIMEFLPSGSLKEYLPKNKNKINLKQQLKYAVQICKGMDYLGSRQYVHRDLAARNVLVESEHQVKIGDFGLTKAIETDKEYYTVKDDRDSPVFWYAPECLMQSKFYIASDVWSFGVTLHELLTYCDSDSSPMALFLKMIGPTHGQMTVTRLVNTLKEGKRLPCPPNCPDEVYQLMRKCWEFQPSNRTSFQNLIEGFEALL
ENDPOINT NAME: Ki (pM)
Please respond with the number in pM and leave the unit unwritten.

Form: compound = CN1CCN(C(=O)Cn2cc(Nc3nc4c(C5=CC6CCC(C5)N6C(=O)OCC(F)(F)F)cccn4n3)cn2)CC1 (stereo not shown) [Example 7] ; Ki = 700

---

molecular target: isolated recombinant JAK2 kinase domain (Homo sapiens (Human), UniProt O60674); experiment: JAK2 enzyme assay (Caliper LabChip, Ki); type: biochemical; settings: isolated recombinant JAK2 kinase domain, 0.2 nM enzyme, ATP 25 μM
Sequence (O60674 849-1124): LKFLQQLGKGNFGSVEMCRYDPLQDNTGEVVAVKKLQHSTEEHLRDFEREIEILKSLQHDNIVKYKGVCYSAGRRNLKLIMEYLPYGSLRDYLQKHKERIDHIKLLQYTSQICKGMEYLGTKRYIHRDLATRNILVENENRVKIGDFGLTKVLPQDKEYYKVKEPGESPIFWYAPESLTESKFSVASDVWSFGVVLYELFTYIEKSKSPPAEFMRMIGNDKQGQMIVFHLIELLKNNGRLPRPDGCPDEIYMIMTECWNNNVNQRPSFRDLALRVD
log10 of Ki overview
Each number you see is log10 of Ki, and the unit inside the log is nM.

# annotated cases, reported log10 of Ki shown
- CN1CCN(C(=O)Cn2cc(Nc3nc4c(N5CC6CCC(C5)N6C(=O)c5cccc(CC#N)c5)cccn4n3)cn2)CC1: 0.97
- COC(=O)C1C2CCC1CN(c1cccn3nc(Nc4cnn(CC(=O)N5CCN(C)CC5)c4)nc13)C2 (centres unmarked): 0.49
- CN1CCN(C(=O)Cn2cc(Nc3nc4c(N5CC6CCC(C5)N6C(=O)c5ccsc5)cccn4n3)cn2)CC1: 0.15

Form: molecule = CN(CC1(C#N)CC1)C1CCN(C(=O)Cn2cc(Nc3nc4c(N5CC6CCC(C5)N6C(=O)C5CC(C(F)(F)F)C5)cccn4n3)cn2)CC1 (centres unmarked) [Example 193] ; log10 of Ki = -0.15

Form: molecule = `CN1CCN(C(=O)Cn2cc(Nc3nc4c(N5CC6CCC(C5)N6S(=O)(=O)Cc5ccc(Cl)cc5)cccn4n3)cn2)CC1` ; log10 of Ki = -0.05

Form: molecule = `CN1CCN(C(=O)Cn2cc(Nc3nc4c(N5C[C@H]6CC[C@@H](C5)[C@H]6OCc5cccnc5)cccn4n3)cn2)CC1` ; log10 of Ki = -0.10

Form: molecule = `CN1CCN(C(=O)Cn2cc(Nc3nc4c(N5CC6CCC(C5)N6Cc5cccc(C#N)c5)cccn4n3)cn2)CC1` ; log10 of Ki = 0.60

Form: molecule = `CN1CCN(C(=O)Cn2cc(Nc3nc4c(N5CC6CCCC(C5)N6C(=O)N5CC(C(F)(F)F)C5)cccn4n3)cn2)CC1` ; log10 of Ki = -0.52

Form: molecule = `CSc1cccc(C(=O)N2C3CCC2CN(c2cccn4nc(Nc5cnn(CC(=O)N6CCN(C)CC6)c5)nc24)C3)c1` ; log10 of Ki = 0.62

Form: molecule = `CN1CCN(C(=O)Cn2cc(Nc3nc4c(N5CC6CCC(C5)N6S(=O)(=O)c5cccc(Cl)c5)cccn4n3)cn2)CC1` ; log10 of Ki = -0.52

Form: molecule = N#CC1(CNC2CCN(C(=O)Cn3cc(Nc4nc5c(N6CC7CCC(C6)N7C(=O)C6CC(C(F)(F)F)C6)cccn5n4)cn3)CC2)CC1 (centres unmarked) [Example 191] ; log10 of Ki = 0.89

Form: molecule = `CN1CCN(C(=O)Cn2cc(Nc3nc4c(N5CC6CCC(C5)N6S(=O)(=O)C5CCCCC5)cccn4n3)cn2)CC1` ; log10 of Ki = 0.18

Form: molecule = CSCCN1CCN(C(=O)Cn2cc(Nc3nc4c(N5CC6CCC(C5)N6C(=O)C5CC(C(F)(F)F)C5)cccn4n3)cn2)CC1 (centres unmarked) [Example 198] ; log10 of Ki = 0.32

Form: molecule = `CSc1ccccc1C(=O)N1C2CCC1CN(c1cccn3nc(Nc4cnn(CC(=O)N5CCN(C)CC5)c4)nc13)C2` ; log10 of Ki = 0.32

Form: molecule = `CN1CCN(C(=O)Cn2cc(Nc3nc4c(N5CC6CCC(C5)N6C(=O)N5CC(C(F)(F)F)C5)cccn4n3)cn2)CC1` ; log10 of Ki = -0.40

Form: molecule = `CN1CCN(C(=O)Cn2cc(Nc3nc4c(N5CC6CCC(C5)N6C(=O)C5(C(F)(F)F)CC5)cccn4n3)cn2)CC1` ; log10 of Ki = 0.26

Form: molecule = `CN1CCN(C(=O)Cn2cc(Nc3nc4c(N5CC6CCCC(C5)N6C(=O)CC5CC(F)(F)C5)cccn4n3)cn2)CC1` ; log10 of Ki = -0.30

Form: molecule = CN1CCN(C(=O)Cn2cc(Nc3nc4c(N5CC6CCC(C5)N6C(=O)CC5CC(F)(F)C5(F)F)cccn4n3)cn2)CC1 (centres unmarked) ; log10 of Ki = -0.05

Form: molecule = `O=C(Cn1cc(Nc2nc3c(N4CC5CCC(C4)N5C(=O)[C@H]4C[C@@H](C(F)(F)F)C4)cccn3n2)cn1)N1CCN(C2CSC2)CC1` ; log10 of Ki = -0.52

Form: molecule = CN1CCN(C(=O)Cn2cc(Nc3nc4c(N5CC6CCC(C5)N6C(=O)C5CC(C#N)C5)cccn4n3)cn2)CC1 (centres unmarked) ; log10 of Ki = 0.23

Form: molecule = `CN1CCN(C(=O)Cn2cc(Nc3nc4c(N5CC6CCC(C5)N6S(=O)(=O)Cc5ccc(C#N)cc5)cccn4n3)cn2)CC1` ; log10 of Ki = 0.64

---

log10(Ki) overview
molecular target: isolated recombinant JAK1 kinase domain (Homo sapiens (Human)); experiment: JAK1 enzyme assay (Caliper LabChip, Ki); type: biochemical; details: isolated recombinant JAK1 kinase domain, 1.5 nM enzyme, ATP 25 μM
Each number you see is log10 of Ki, and the unit inside the log is pM.

# annotated cases, reported log10(Ki) shown
• CN1CCN(C(=O)Cn2cc(Nc3nc4c(N5CC6CCC(C5)N6S(=O)(=O)Cc5ccc(C(F)(F)F)cc5)cccn4n3)cn2)CC1 = 3.00
• CC(C(=O)N1CCN(C)CC1)n1cc(Nc2nc3c(N4CC5CCC(C4)N5C(=O)CCC(F)(F)F)cccn3n2)cn1 (stereo not shown) [Example 104] = 3.23
• CN1CCN(C(=O)Cn2cc(Nc3nc4c(N5C[C@H]6CC[C@@H](C5)[C@H]6OCc5cccc(C#N)c5)cccn4n3)cn2)CC1 = 2.78
• CC(C)(C#N)CNC1CCN(C(=O)Cn2cc(Nc3nc4c(N5CC6CCC(C5)N6C(=O)N5CC(C(F)(F)F)C5)cccn4n3)cn2)CC1 = 3.04
• CN1CCN(C(=O)Cn2cc(Nc3nc4c(N5CC6CCC(C5)N6S(=O)(=O)Cc5cccc(F)c5)cccn4n3)cn2)CC1 = 2.85
• CN1CCN(C(=O)Cn2cc(Nc3nc4c(N5CC6CCC(C5)N6S(=O)(=O)c5ccc(C(F)(F)F)cc5)cccn4n3)cn2)CC1 = 2.30
• CN1CCN(C(=O)Cn2cc(Nc3nc4c(N5CC6CCC(C5)N6Cc5cnc(CC(F)(F)F)s5)cccn4n3)cn2)CC1 = 3.46
• N#CC1(CNC2CCN(C(=O)Cn3cc(Nc4nc5c(N6CC7CCC(C6)N7C(=O)N6CC(C(F)(F)F)C6)cccn5n4)cn3)CC2)CC1 = 2.90
• CN1CCN(C(=O)Cn2cc(Nc3nc4c(N5CC6CCC(C5)N6C(=O)C5CC(C#N)C5)cccn4n3)cn2)CC1 (stereo not shown) = 2.95
• CCN1CCN(C(=O)Cn2cc(Nc3nc4c(N5CC6CCC(C5)N6C(=O)N5CC(C(F)(F)F)C5)cccn4n3)cn2)CC1 = 2.90

Short answer on isolated recombinant JAK1 kinase domain (Homo sapiens (Human)) for `CN1CCN(C(=O)Cn2cc(Nc3nc4c(N5CC6CCC(C5)N6S(=O)(=O)c5ccc(C#N)cc5)cccn4n3)cn2)CC1` , log10(Ki): 3.04

Short answer on isolated recombinant JAK1 kinase domain (Homo sapiens (Human)) for `O=C(Cn1cc(Nc2nc3c(N4CC5CCC(C4)N5C(=O)[C@H]4C[C@@H](C(F)(F)F)C4)cccn3n2)cn1)N1CCN(C2CSC2)CC1` , log10(Ki): 2.60

Short answer on isolated recombinant JAK1 kinase domain (Homo sapiens (Human)) for `CN1CCN(C(=O)Cn2cc(Nc3nc4c(N5CC6CCC(C5)N6S(=O)(=O)c5ccc(Cl)cc5F)cccn4n3)cn2)CC1` , log10(Ki): 3.30

Hello, the source for this data is patent US10189836B2, in case you need it.
